# targetSystem: CYP1A1 (Homo sapiens)
# Sequence (P04798 whole entry): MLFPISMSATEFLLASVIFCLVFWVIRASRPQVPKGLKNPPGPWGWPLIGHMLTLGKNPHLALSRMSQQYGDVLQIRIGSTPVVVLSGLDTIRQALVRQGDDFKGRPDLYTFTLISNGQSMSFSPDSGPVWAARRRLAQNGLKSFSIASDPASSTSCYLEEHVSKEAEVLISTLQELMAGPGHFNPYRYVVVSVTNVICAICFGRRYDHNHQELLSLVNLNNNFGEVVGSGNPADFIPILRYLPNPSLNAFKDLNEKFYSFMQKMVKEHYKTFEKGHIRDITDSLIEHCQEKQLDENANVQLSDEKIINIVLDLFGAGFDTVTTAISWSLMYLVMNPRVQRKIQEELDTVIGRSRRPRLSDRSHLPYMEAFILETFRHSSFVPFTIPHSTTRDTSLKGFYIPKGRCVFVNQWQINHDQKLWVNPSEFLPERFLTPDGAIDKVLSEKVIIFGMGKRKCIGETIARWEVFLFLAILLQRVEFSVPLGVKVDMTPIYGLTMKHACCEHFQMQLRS
# procedureSummary: CYP1A1 inhibition in live HEK293 cells overexpressing CYP1A1
# Format: cell-based
propertyName: IC50 (nM)
State the answer as a number, implicitly in nM.

Record COc1c2c(c(OC)c3occc13)OC(c1ccc(F)c(Br)c1)CC2=O (stereo not shown) has CYP1A1 (Homo sapiens) IC50 equal to 140

Record COc1c2c(c(OC)c3occc13)OC(c1cccnc1)CC2=O (stereo not shown) has CYP1A1 (Homo sapiens) IC50 equal to 450

Record COc1c2c(c(OC)c3occc13)OC(c1ccccc1)CC2=O (stereo not shown) has CYP1A1 (Homo sapiens) IC50 equal to 1840

Record `COc1c(C(=O)C=Cc2cccnc2)c(O)c(OC)c2occc12` has CYP1A1 (Homo sapiens) IC50 equal to 470
